Biological target: UniProt P08581
Sequence (P08581 whole entry): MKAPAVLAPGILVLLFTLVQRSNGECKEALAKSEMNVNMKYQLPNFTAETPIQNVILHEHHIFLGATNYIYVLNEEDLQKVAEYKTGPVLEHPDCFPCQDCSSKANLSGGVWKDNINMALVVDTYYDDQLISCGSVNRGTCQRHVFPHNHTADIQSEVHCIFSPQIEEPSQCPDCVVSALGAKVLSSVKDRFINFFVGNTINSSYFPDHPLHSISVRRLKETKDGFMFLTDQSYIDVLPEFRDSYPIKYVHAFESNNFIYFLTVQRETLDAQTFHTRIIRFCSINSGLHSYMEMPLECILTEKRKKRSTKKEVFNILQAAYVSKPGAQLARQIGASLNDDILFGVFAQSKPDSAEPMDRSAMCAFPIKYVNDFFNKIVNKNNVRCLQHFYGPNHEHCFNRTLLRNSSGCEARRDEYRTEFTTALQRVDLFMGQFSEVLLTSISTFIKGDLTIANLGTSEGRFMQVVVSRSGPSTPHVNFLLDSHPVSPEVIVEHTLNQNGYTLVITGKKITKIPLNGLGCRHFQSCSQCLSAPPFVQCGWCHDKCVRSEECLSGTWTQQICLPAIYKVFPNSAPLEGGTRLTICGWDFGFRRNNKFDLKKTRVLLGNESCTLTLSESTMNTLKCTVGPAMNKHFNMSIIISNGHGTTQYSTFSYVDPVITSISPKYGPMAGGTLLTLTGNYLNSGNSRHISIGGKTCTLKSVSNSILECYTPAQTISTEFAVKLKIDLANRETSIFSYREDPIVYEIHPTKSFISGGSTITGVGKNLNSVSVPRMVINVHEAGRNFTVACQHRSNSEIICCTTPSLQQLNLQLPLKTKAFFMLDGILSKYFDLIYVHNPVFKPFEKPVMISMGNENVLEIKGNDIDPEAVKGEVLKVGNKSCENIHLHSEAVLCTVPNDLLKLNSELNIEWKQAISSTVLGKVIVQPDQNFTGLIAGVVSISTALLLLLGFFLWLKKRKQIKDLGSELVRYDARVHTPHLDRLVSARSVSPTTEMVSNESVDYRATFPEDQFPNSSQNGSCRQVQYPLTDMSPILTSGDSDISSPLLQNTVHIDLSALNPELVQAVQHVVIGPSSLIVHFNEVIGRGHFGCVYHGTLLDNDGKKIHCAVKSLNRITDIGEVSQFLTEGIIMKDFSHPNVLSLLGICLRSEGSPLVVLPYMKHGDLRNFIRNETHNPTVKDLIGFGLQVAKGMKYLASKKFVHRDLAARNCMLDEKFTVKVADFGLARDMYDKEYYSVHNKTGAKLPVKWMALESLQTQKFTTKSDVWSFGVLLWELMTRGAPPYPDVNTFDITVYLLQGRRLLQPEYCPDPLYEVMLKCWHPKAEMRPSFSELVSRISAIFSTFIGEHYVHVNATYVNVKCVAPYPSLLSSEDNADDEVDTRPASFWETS
Assay: Inhibition of MET at 10 uM
parameter: inhibition (%)

Before answering, review these 8 worked examples.
compound	target of assay	inhibition, %
CCOC(=O)c1cc2cc(Nc3ncnc4cc(OC)c(OCCCN(CC)CC)cc34)ccc2s1	UniProt P08581	22
CCOC(=O)c1cc2cc(Nc3ncnc4cc(OCCCN(C)C)c(OC)cc34)ccc2s1	UniProt P08581	45
CCOC(=O)c1cc2cc(Nc3ncnc4cc(OCCCN5CCC(C)CC5)c(OC)cc34)ccc2s1	UniProt P08581	14.1
CCOC(=O)c1cc2cc(Nc3ncnc4cc(OCCCN5CCCCC5)c(OC)cc34)ccc2s1	UniProt P08581	52.2
CCOC(=O)c1cc2cc(Nc3ncnc4cc(OC)c(OCCCN5CCC(C)CC5)cc34)ccc2s1	UniProt P08581	12.8
CCOC(=O)c1cc2cc(Nc3ncnc4cc(OC)c(OCCCN5CCN(C)CC5)cc34)ccc2s1	UniProt P08581	32.3
CCOC(=O)c1cc2cc(Nc3ncnc4cc(OCCCN5CCCC5)c(OC)cc34)ccc2s1	UniProt P08581	44.9
CCOC(=O)c1cc2cc(Nc3ncnc4cc(OC)c(OCCCN5CCCCC5)cc34)ccc2s1	UniProt P08581	21.1

(A) CCOC(=O)c1cc2cc(Nc3ncnc4cc(OCCCN(CC)CC)c(OC)cc34)ccc2s1
(B) COc1cc2ncnc(Nc3ccc(F)c(Cl)c3)c2cc1OCCCN1CCOCC1
Query string: // pick min by inhibition: A , B Lab log: write the label of the selected item as the result.
Result string: B
(B: 28.2%, A: 57.3%)

(I) CCOC(=O)c1cc2cc(Nc3ncnc4cc(OC)c(OCCCN5CCN(CC)CC5)cc34)ccc2s1
(II) CCOC(=O)c1cc2cc(Nc3ncnc4cc(OCCCN5CCCCC5C)c(OC)cc34)ccc2s1 (centres undefined)
Query string: Field: lower recorded inhibition (choose I or II ) Reply with the label of the item you choose.
Result string: I
(I: 44.6%, II: 69.8%)

(a) CCOC(=O)c1cc2cc(Nc3ncnc4cc(OCCCN5CCN(CC)CC5)c(OC)cc34)ccc2s1
(b) CCOC(=O)c1cc2cc(Nc3ncnc4cc(OC)c(OCCCN5CCN(c6ccccc6)CC5)cc34)ccc2s1
(c) CCOC(=O)c1cc2cc(Nc3ncnc4cc(OC)c(OCCCN(C)C)cc34)ccc2s1
Query string: Rank order required: inhibition, descending. Labels, ranked as asked.
Result string: a, b, c
(a: 51.6%, b: 35.2%, c: 21.6%)

(1) CCOC(=O)c1cc2cc(Nc3ncnc4cc(OCCCN5CCN(C)CC5)c(OC)cc34)ccc2s1
(2) CCOC(=O)c1cc2cc(Nc3ncnc4cc(OC)c(OCCCN5CCCCC5C)cc34)ccc2s1 (centres undefined)
Query string: Lab note: check whether 1 or 2 shows the higher recorded inhibition. Answer by quoting the chosen item's label.
Result string: 1
(1: 51%, 2: 25.2%)
